Data credit: patent US20250114357A1

# test system: CDK9/CycT1 (Homo sapiens, UniProt P50750)
# Sequence (P50750 whole entry): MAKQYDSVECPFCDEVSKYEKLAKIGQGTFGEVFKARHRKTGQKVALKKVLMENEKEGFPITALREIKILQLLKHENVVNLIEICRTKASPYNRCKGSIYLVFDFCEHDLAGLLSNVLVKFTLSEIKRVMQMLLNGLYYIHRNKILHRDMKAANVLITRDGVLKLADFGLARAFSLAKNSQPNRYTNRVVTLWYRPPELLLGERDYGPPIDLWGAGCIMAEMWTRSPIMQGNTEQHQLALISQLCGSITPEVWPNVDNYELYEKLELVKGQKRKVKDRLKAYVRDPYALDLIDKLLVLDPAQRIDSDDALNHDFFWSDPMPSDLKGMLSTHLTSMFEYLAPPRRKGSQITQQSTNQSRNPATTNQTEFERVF
# Sequence (O60563 whole entry partner): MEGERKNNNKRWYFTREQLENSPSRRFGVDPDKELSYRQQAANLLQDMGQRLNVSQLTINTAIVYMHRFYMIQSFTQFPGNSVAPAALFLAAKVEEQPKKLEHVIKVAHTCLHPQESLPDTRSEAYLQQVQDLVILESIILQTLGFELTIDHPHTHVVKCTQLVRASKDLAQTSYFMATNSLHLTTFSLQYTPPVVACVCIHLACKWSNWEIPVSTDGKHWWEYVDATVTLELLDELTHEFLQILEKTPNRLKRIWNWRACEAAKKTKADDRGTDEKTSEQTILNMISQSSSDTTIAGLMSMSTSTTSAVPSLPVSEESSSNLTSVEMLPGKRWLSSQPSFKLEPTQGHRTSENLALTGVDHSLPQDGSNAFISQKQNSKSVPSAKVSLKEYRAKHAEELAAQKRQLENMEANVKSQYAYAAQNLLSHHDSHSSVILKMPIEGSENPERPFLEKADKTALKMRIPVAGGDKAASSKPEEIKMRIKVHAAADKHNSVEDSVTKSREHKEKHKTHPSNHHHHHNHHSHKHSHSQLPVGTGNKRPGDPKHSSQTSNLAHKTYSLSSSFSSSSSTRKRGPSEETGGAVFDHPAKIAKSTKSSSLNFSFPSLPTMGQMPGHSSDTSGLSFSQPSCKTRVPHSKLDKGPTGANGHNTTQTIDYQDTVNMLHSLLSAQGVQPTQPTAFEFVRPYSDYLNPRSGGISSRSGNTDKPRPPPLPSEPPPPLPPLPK
# procedure details: ADP-Glo Kinase Assay
# study conditions: Table 1; assay not given
endpoint name: IC50

Q: What measured IC50 goes with CC(C)c1c2cc(-c3ccnc(N[C@H]4CC[C@H](NCCCCCc5cccc6c5CN(C5CCC(=O)NC5=O)C6=O)C4)n3)ccc2nn1C (stereo partly shown) ?
A: 5 to 1000 nM

Q: What measured IC50 goes with CC(C)c1c2cc(-c3ccnc(N[C@H]4CC[C@H](NC(=O)N5CCN(CCCCCc6cccc7c6C(=O)N(C6CCC(=O)NC6=O)C7=O)CC5)C4)n3)ccc2nn1C (stereo partly shown) ?
A: ≤ 5 nM

Q: What measured IC50 goes with CC(C)c1c2cc(-c3ccnc(N[C@H]4CC[C@H](NC(=O)N5CCN(CCCCCc6ccc7c(c6)CN(C6CCC(=O)NC6=O)C7=O)CC5)C4)n3)cc(F)c2nn1C (stereo partly shown) ?
A: ≤ 5 nM

Q: What measured IC50 goes with CC(C)c1c2cc(-c3ccnc(N[C@H]4CC[C@H](NCc5cccc6c5C(=O)N(C5CCC(=O)NC5=O)C6=O)C4)n3)ccc2nn1C (stereo partly shown) ?
A: 5 to 1000 nM
